- System: panel of cancer cell lines
- Procedure text: Cell viability (CellTiter-Glo) dose-response across cancer cell line panel;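 note: after 72 h compound incubation with CellTiter-Glo ATP readout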
- Format: cell-based, human
- Details: Homo sapiens, HEY A8, Hey-A8 cells
Measured endpoint: EC50 (µM)
Field format: number, assumed µM, no unit text.

Name the recorded EC50 for `COCc1ccccc1NCc1ccc([C@@H]2[C@H](O)CCCc3cncn32)c(-c2ccccc2Cl)c1` . 12.9

---

- Test system: panel of cancer cell lines
- Procedure text: Cell viability (CellTiter-Glo) dose-response across cancer cell line panel;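 note: after 72 h compound incubation with CellTiter-Glo ATP readout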
- Format: cell-based, human
- Details: Homo sapiens, SW1271, SW 1271 cells
Measured endpoint: pEC50
Just the number, please; pEC50 means minus log10 of the concentration in mol/L.

Returns the measured pEC50 for the input compound. Input: COCc1ccccc1NCc1ccc([C@@H]2[C@H](O)CCCc3cncn32)c(-c2ccccc2Cl)c1 [CSN5i-2e] 4.73
